These measurements were taken from patent US20220106304A1.

Target: UniProt:P20265
Sequence (P20265 1-443): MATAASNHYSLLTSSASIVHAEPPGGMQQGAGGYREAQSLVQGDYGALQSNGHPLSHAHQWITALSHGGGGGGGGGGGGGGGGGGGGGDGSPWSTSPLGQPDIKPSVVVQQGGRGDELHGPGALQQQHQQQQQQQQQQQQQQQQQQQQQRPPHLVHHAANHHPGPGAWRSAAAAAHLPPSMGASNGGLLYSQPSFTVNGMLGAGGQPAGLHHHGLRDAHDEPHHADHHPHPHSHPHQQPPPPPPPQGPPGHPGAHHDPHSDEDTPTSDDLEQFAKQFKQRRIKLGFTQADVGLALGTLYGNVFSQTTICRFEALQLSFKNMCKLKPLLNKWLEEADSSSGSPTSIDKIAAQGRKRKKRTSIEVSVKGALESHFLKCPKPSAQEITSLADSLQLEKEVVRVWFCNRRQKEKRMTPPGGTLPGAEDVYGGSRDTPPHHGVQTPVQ
Experiment: cell-based
Details: 30 μM compound, 24 hours, 42D^ENZR cells stably expressing BRN2-luciferase reporter; negative = activation
Outcome measure: % BRN2 Inhibition (30 μM)

Sample answers from the record:
> print(dat)
                                   molecule  measurement
1  Cn1c(-c2ccc(C3CCCO3)o2)nc2ccccc21 (stereo not drawn)     INACTIVE
2    Clc1cc(Br)ccc1-c1nc(-c2cc3ccccc3o2)cs1     INACTIVE
3  Cc1c(-c2csc(-c3ccc(Br)cc3F)n2)oc2cc(F)ccc12     INACTIVE
4  Cn1c(-c2csc(-c3ccc(Br)cc3F)n2)nc2ccc(F)cc21     INACTIVE

// moving on: another record for % BRN2 Inhibition (30 μM)
query: Can you share its % BRN2 Inhibition (30 μM)? I mean this molecule: Clc1ccc2cc(-c3csc(C4=CCNCC4)n3)oc2c1
result: 99.95%

* * *

Target: BRN2 (Homo sapiens, UniProt P20265)
Sequence (P20265 1-443): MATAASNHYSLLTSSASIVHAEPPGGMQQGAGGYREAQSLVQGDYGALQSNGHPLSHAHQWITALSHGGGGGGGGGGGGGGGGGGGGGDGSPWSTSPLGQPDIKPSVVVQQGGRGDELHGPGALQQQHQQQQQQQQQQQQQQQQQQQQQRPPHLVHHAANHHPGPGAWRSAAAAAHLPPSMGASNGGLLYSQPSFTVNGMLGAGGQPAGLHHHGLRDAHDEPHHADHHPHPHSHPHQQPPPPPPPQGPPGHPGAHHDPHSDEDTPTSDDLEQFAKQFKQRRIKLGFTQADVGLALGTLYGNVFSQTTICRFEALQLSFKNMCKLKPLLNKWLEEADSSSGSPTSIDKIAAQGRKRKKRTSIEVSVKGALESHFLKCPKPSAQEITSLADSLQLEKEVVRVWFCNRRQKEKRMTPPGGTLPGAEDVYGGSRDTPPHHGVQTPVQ
Experiment: cell-based
Settings: 10 μM compound, 24 hours, 42D^ENZR cells stably expressing BRN2-luciferase reporter; negative = activation
Outcome measure: % BRN2 Inhibition (10 μM)

> print(dat)
                                   compound                       assayed.system  measurement
1  Cn1c(-c2ccc(C3CCCO3)o2)nc2ccccc21 (stereo not drawn)  BRN2 (Homo sapiens, UniProt P20265)     INACTIVE
2      Clc1ccc2cc(-c3csc(C4=CCNCC4)n3)oc2c1  BRN2 (Homo sapiens, UniProt P20265)          65%
3  Cn1c(-c2csc(-c3ccc(Br)cc3F)n2)nc2ccc(F)cc21  BRN2 (Homo sapiens, UniProt P20265)     INACTIVE
4  Cc1c(-c2csc(-c3ccc(Br)cc3F)n2)oc2cc(F)ccc12  BRN2 (Homo sapiens, UniProt P20265)     INACTIVE

query: Which measured % BRN2 Inhibition (10 μM) belongs to Clc1cc(Br)ccc1-c1nc(-c2cc3ccccc3o2)cs1 , tested on BRN2 (Homo sapiens, UniProt P20265)?
result: INACTIVE
